- Tested on: SF-295 CNS
- Assay Explanation: NCI-60 one-dose screen, 48 h
- Assay Conditions: 10 µM
Compounds without any hit were thinned out: in the full panel of roughly 83,000, 20% have a hit. Active and inactive are the calls of the source. Rule for the calls: active = growth percent below 10; inactive = the rest.
Outcome codes: YES for active, NO for inactive

Molecule | Target Or Test System | Label Class
CCOP(=O)(CC(F)(F)C(F)(F)F)OCC | SF-295 CNS | NO
O=C(NC([Se])=NC1CCCCC1)c1ccc2c(c1)OCO2 | SF-295 CNS | YES
CC1=C(CCC=O)C2=C(C)C3(CC3)[C@@](C)(O)C(=O)C2=C1 | SF-295 CNS | YES
CCOC(=O)C1=C(Nc2ccccc2)C(=O)OC12C(=O)Nc1ccccc12 (stereo not drawn) | SF-295 CNS | NO
CC1=C(COCCOC(=O)c2ccc(S(=O)(=O)F)cc2)C2=C(C)C3(CC3)[C@@](C)(O)C(=O)C2=C1 | SF-295 CNS | YES
Cc1c2oc3c(C)ccc(C(=O)N[C@@H]4C(=O)N[C@H](C(C)C)C(=O)N5CCC[C@H]5C(=O)N(C)CC(=O)N(C)[C@@H](C(C)C)C(=O)OC4C)c3nc-2c(C(=O)N[C@@H]2C(=O)N[C@H](C(C)C)C(=O)N3CC(=O)C[C@H]3C(=O)N(C)CC(=O)N(C)[C@@H](C(C)C)C(=O)OC2C)c(N)c1=O (stereo partly drawn) | SF-295 CNS | YES
O=C([Se]C1C=CCCC1)c1ccc(C(=O)[Se]C2C=CCCC2)s1 (stereo not drawn) | SF-295 CNS | YES
CC(C)N=C([Se])NC(=O)c1ccccc1 | SF-295 CNS | YES
